I'd appreciate it if you could supply isoTOP-ABPP ratio (reactivity profile), Q9NYL2_C22 values for the items below.
target: UniProt Q9NYL2; experiment: Competitive isoTOP-ABPP, cell lysates; type: binding; conditions: 500 μm in-vitro ramos_231
Sequence (Q9NYL2 whole entry): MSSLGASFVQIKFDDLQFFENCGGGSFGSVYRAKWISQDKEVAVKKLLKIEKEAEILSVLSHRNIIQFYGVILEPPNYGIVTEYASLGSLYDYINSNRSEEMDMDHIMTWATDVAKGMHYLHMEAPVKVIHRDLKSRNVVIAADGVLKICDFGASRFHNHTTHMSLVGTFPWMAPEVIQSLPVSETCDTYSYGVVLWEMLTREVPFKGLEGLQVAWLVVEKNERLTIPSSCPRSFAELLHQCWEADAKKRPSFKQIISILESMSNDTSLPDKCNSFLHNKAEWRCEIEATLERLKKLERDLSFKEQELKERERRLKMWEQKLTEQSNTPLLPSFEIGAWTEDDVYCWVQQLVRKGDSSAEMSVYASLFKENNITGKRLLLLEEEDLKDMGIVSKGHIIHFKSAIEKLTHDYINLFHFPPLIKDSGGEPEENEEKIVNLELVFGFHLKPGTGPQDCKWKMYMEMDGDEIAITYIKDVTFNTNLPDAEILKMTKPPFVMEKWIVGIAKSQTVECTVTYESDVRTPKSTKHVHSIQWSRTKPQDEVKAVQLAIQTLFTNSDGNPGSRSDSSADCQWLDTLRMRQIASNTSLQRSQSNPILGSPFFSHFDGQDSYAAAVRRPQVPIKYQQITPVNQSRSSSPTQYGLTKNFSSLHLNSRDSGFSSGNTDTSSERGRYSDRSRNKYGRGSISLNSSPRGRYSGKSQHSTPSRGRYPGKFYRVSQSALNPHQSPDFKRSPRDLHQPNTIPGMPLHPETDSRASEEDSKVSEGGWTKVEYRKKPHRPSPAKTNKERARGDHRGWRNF
Answers are plain numbers.

Worked cases, isoTOP-ABPP ratio (reactivity profile), Q9NYL2_C22 given:
INSERT INTO measurements (smiles_str, meas_value) VALUES
  ('O=C(CCl)NC12CC3CC(CC(C3)C1)C2', 2.0),
  ('O=C(CCl)N1CCOCC1', 1.0);

Kindly consider the entry below.
Value of isoTOP-ABPP ratio (reactivity profile), Q9NYL2_C22 reported for the compound O=C(CCl)N1CCC(C(O)(c2ccccc2)c2ccccc2)CC1 is 20.0

---

I'd appreciate it if you could supply isoTOP-ABPP ratio Q13428_C38 values for the items below.
target: cysteines in MDA-MB-231 and Ramos cells (Homo sapiens); test: Competitive isoTOP-ABPP in situ (fragment-treated cells); format: cell-based; settings: 200 μM, insitu, 231

Worked cases, isoTOP-ABPP ratio Q13428_C38 given:
INSERT INTO measurements (molecule, system_tested, meas_value) VALUES
  ('O=C(CCl)N1CCN(S(=O)(=O)c2ccccc2F)CC1', 'cysteines in MDA-MB-231 and Ramos cells (Homo sapiens)', 4.2),
  ('CC1CCc2ccccc2N1C(=O)CCl (stereo not shown)', 'cysteines in MDA-MB-231 and Ramos cells (Homo sapiens)', 2.8),
  ('O=C(CCl)NC12CC3CC(CC(C3)C1)C2', 'cysteines in MDA-MB-231 and Ramos cells (Homo sapiens)', 1.5);

Below are 6 molecules. Give each one its isoTOP-ABPP ratio Q13428_C38.
1. C=CC(=O)Nc1cc(F)c(N2CCN(C(=O)OC(C)(C)C)CC2)c(F)c1
2. O=C(CCl)NCCc1c[nH]c2ccccc12
3. CC(C)CCOCCNC(=O)CCl
4. O=C(CCl)NC(=O)NC12CC3CC(CC(C3)C1)C2
5. COc1ccccc1OCCNC(=O)CCl
6. O=C(CCl)Nc1cccc2ncccc12

## Output
[1.1, 1.6, 1.3, 4.7, 1.0, 1.1]

Value of isoTOP-ABPP ratio Q13428_C38 reported for the molecule Cc1ccc(C=C(C#N)C(=O)NCCN2CCOCC2)cc1 is 1.1

---

biological target: cysteines in MDA-MB-231 and Ramos cells (Homo sapiens); assay: Competitive isoTOP-ABPP in situ (fragment-treated cells); format: cell-based; details: 200 μM, insitu, 231
QUANTITY_NAME: isoTOP-ABPP ratio Q99497_C106
Give bare numbers.

Below are 6 molecules. Give each one its isoTOP-ABPP ratio Q99497_C106.
1. Cc1ccc(C=C(C#N)C(=O)NCCN2CCOCC2)cc1 [compound 41]
2. C=CC(=O)N(Cc1cccnc1)c1cc(C(F)(F)F)cc(C(F)(F)F)c1 [compound 31]
3. CC(C)CCOCCNC(=O)CCl [compound 27]
4. CC1CCc2ccccc2N1C(=O)CCl (stereo not drawn) [compound 45]
5. O=C(CCl)NC(=O)NC12CC3CC(CC(C3)C1)C2 [compound 12]
6. O=C(CCl)N1CCN(S(=O)(=O)c2ccccc2F)CC1 [compound 10]

## Output
1. 0.6
2. 0.8
3. 0.9
4. 20.0
5. 3.0
6. 1.7

Below are 3 molecules. Give each one its isoTOP-ABPP ratio Q99497_C106.
1. COc1ccccc1OCCNC(=O)CCl [compound 28]
2. O=C(CCl)Nc1cccc2ncccc12 [compound 51]
3. C=CC(=O)Nc1cc(F)c(N2CCN(C(=O)OC(C)(C)C)CC2)c(F)c1 [compound 38]

## Output
1.0
1.4
1.1

This collection of values is drawn from patent US10670605B2.
